Entries and their ΔTm at 100 µM values follow.
TARGET OR TEST SYSTEM: hsTEAD3 (216-435) (Homo sapiens (Human))
EXPERIMENTAL PROTOCOL: Thermal shift measurement / Differential Scanning Fluorimetry (DSF)
Format: binding
CONDITION NOTES: 100 uM compound, 2 hours at 4° C., triplicates; read-out: ΔTm TEAD3 216-435
Field format: number, assumed °C, no unit text.

- COMPOUND: "Cc1ncsc1-c1ccc(CNC(=O)[C@@H]2C[C@@H](O)CN2C(=O)[C@@H](NC(=O)CCCCCC(=O)NCCOCCOCCNC(=O)c2ccc3c(c2)c2cn(C)nc2n3-c2ccc(C(F)(F)F)cc2)C(C)(C)C)cc1"
  TARGET OR TEST SYSTEM: "hsTEAD3 (216-435) (Homo sapiens (Human))"
  UNIT ANNOTATION: "°C"
  RESULT NUMBER: 0.6
- COMPOUND: "Cn1cc2c3cc(C(=O)NCCOCCOCCNC(=O)COc4cccc5c4C(=O)N(C4CCC(=O)NC4=O)C5=O)ccc3n(-c3ccc(C(F)(F)F)cc3)c2n1 (centres unmarked)"
  TARGET OR TEST SYSTEM: "hsTEAD3 (216-435) (Homo sapiens (Human))"
  UNIT ANNOTATION: "°C"
  RESULT NUMBER: 0.9
- COMPOUND: "Cn1cc2c3cc(C(=O)NCCOCCOCCNC(=O)COCCOCCOCC(=O)Nc4cccc5c4C(=O)N(C4CCC(=O)NC4=O)C5=O)ccc3n(-c3ccc(C(F)(F)F)cc3)c2n1 (centres unmarked)"
  TARGET OR TEST SYSTEM: "hsTEAD3 (216-435) (Homo sapiens (Human))"
  UNIT ANNOTATION: "°C"
  RESULT NUMBER: 1.3
- COMPOUND: "Cc1ncsc1-c1ccc(CNC(=O)[C@H]2C[C@H](O)CN2C(=O)[C@H](NC(=O)COCCOCCOCCOCCOCCNC(=O)c2ccc3c(c2)c2cn(C)nc2n3-c2ccc(C(F)(F)F)cc2)C(C)(C)C)cc1"
  TARGET OR TEST SYSTEM: "hsTEAD3 (216-435) (Homo sapiens (Human))"
  UNIT ANNOTATION: "°C"
  RESULT NUMBER: 1.3

Let us examine a further case.
The measured ΔTm at 100 µM associated with Cn1cc2c3cc(C(=O)NCCOCCOCCNC(=O)COCCOCCOCCOCCOCC(=O)Nc4cccc5c4C(=O)N(C4CCC(=O)NC4=O)C5=O)ccc3n(-c3ccc(C(F)(F)F)cc3)c2n1 (centres unmarked) reads 0

====

In this section, each of the molecules is paired with its reported DC50.
TARGET OR TEST SYSTEM: TEAD1 in NCI-H226 cells (Homo sapiens (Human), UniProt P28347)
Sequence (P28347 whole entry): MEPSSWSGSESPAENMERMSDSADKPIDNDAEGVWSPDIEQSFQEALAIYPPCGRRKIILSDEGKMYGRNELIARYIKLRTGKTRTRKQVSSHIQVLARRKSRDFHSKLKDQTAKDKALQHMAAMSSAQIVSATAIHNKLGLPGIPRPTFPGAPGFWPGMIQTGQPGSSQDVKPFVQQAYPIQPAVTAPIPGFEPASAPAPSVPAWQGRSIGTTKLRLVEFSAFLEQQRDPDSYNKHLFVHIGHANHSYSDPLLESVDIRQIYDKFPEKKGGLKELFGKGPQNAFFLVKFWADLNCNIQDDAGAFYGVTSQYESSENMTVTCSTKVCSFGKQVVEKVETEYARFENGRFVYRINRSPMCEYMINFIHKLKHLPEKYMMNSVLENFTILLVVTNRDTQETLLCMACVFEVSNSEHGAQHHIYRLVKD
EXPERIMENTAL PROTOCOL: TEAD degradation in NCI-H226 cell line (immunofluorescence)
Type: cell-based
CONDITION NOTES: 24 hours, ranges, read-out: DC50 NCI-H226

Reference set (4 entries):
- MOLECULE: "Cc1ncsc1-c1ccc(CNC(=O)[C@@H]2C[C@@H](O)CN2C(=O)[C@@H](NC(=O)CCCCCC(=O)N(C)CCOCCOCCNC(=O)c2ccc3c(c2)c2cn(C)nc2n3-c2ccc(C(F)(F)F)cc2)C(C)(C)C)cc1"
  DC50: "100 to 1000 nM"
- MOLECULE: "CCNC(=O)[C@H](Cc1ccc(F)cc1)NC(=O)[C@@H]1CCCN1C(=O)[C@@H](NC(=O)[C@H](C)NCCOCCOCCOCCNC(=O)c1ccc2c(c1)c1cn(C)nc1n2-c1ccc(C(F)(F)F)cc1)C1CCCCC1 (stereo in doubt)"
  DC50: "9000 to 30000 nM"
- MOLECULE: "Cc1ncsc1-c1ccc(CNC(=O)[C@@H]2C[C@@H](O)CN2C(=O)[C@@H](NC(=O)CCCCCC(=O)NCCOCCOCCNC(=O)c2ccc3c(c2)c2cn(C)nc2n3-c2ccc(C(F)(F)F)cc2)C(C)(C)C)cc1"
  DC50: "1000 to 3000 nM"
- MOLECULE: "Cn1cc2c3cc(C(=O)NCCOCCOCCOCCOCCOc4ccc5c(c4)C(=O)N(C4CCC(=O)NC4=O)C5=O)ccc3n(-c3ccc(C(F)(F)F)cc3)c2n1 (centres unmarked)"
  DC50: "100 to 1000 nM"

Below: the item to evaluate.
DC50 on TEAD1 in NCI-H226 cells (Homo sapiens (Human), UniProt P28347) for Cc1ncsc1-c1ccc(CNC(=O)C2CC(O)CN2C(=O)C(NC(=O)COCCOCCOCCOCCNC(=O)c2ccc3c(c2)c2cn(C)nc2n3-c2ccc(C(F)(F)F)cc2)C(C)(C)C)cc1 (stereo in doubt) is 3000 to 9000 nM

====

We begin with a simple list: items and their reported DC50.
TARGET OR TEST SYSTEM: TEAD1 in SK-HEP1 cells (Homo sapiens (Human), UniProt P28347)
Sequence (P28347 whole entry): as above
EXPERIMENTAL PROTOCOL: TEAD degradation in SK-HEP1 cell line (immunofluorescence)
Type: cell-based
CONDITION NOTES: 24 hours, ranges, read-out: DC50 SK-HEP1

- COMPOUND: "Cc1ncsc1-c1ccc(CNC(=O)[C@@H]2C[C@@H](O)CN2C(=O)[C@@H](NC(=O)CCCCCCCCCNC(=O)c2ccc3c(c2)c2cn(C)nc2n3-c2ccc(C(F)(F)F)cc2)C(C)(C)C)cc1"
  DC50: "0.1 to 1 µM"
- COMPOUND: "Cn1cc2c3cc(C(=O)NCCOCCOCCOCCOCCOc4ccc5c(c4)C(=O)N(C4CCC(=O)NC4=O)C5=O)ccc3n(-c3ccc(C(F)(F)F)cc3)c2n1 (stereo not drawn)"
  DC50: "0.1 to 1 µM"

Notebook: Cn1cc2c3cc(C(=O)NCCOCCOCCOCCOCCOc4cccc5c4C(=O)N(C4CCC(=O)NC4=O)C5=O)ccc3n(-c3ccc(C(F)(F)F)cc3)c2n1 (stereo not drawn) , DC50 read as 0.1 to 1 µM

====

Examples of molecules with documented DC50 follow.
TARGET OR TEST SYSTEM: TEAD1 in NCI-H226 cells (Homo sapiens (Human))
EXPERIMENTAL PROTOCOL: TEAD degradation in NCI-H226 cell line (immunofluorescence)
Assay type: cell-based
CONDITION NOTES: 24 h incubation, read-out: DC50 NCI-H226 24 h
I only need the number, in nM, no unit after it.

See these solved cases before continuing.
- MOLECULE: "Cc1ncsc1-c1ccc([C@H](C)NC(=O)[C@@H]2C[C@@H](O)CN2C(=O)[C@@H](NC(=O)CCCCCc2cn(CCCCCCCNC(=O)c3ccc4c(c3)c3cn(C)nc3n4-c3ccc(C(F)(F)F)cc3)nn2)C(C)(C)C)cc1 [Compound 29]"
  UNIT ANNOTATION: "nM"
  RESULT NUMBER: 300
- MOLECULE: "Cn1cc2c3cc(C(=O)NCCOCCOCCOCCOCCOc4cccc5c4C(=O)N(C4CCC(=O)NC4=O)C5=O)ccc3n(-c3ccc(C(F)(F)F)cc3)c2n1 (stereo not drawn) [Compound 16]"
  UNIT ANNOTATION: "nM"
  RESULT NUMBER: 600
- MOLECULE: "Cn1cc2c3cc(C(=O)NCCOCCOCCOCCOCCOCC(=O)Nc4cccc5c4C(=O)N(C4CCC(=O)NC4=O)C5=O)ccc3n(-c3ccc(C(F)(F)F)cc3)c2n1 (stereo not drawn) [Compound 10]"
  UNIT ANNOTATION: "nM"
  RESULT NUMBER: 20000
- MOLECULE: "Cc1ncsc1-c1ccc([C@H](C)NC(=O)[C@@H]2C[C@@H](O)CN2C(=O)[C@@H](NC(=O)CCCCCC(=O)NCCOCCOCCNC(=O)c2ccc3c(c2)c2cn(C)nc2n3-c2ccc(C(F)(F)F)cc2)C(C)(C)C)cc1 [Compound 24]"
  UNIT ANNOTATION: "nM"
  RESULT NUMBER: 1000

For record Cn1cc2c3cc(C(=O)NCCOCCOCCNC(=O)COc4ccc5c(c4)C(=O)N(C4CCC(=O)NC4=O)C5=O)ccc3n(-c3ccc(C(F)(F)F)cc3)c2n1 (stereo not drawn) [Compound 7] the listed DC50 is 20000

Consider Cc1ncsc1-c1ccc(CNC(=O)[C@@H]2C[C@@H](O)CN2C(=O)[C@@H](NC(=O)COCCOCCOCCOCC(=O)NCCOCCOCCNC(=O)c2ccc3c(c2)c2cn(C)nc2n3-c2ccc(C(F)(F)F)cc2)C(C)(C)C)cc1 [Compound 3] . Its measured DC50 is 10000

The molecule identified as Cc1ncsc1-c1ccc(CNC(=O)[C@@H]2C[C@@H](O)CN2C(=O)[C@@H](NC(=O)CCCCCC(=O)NCCOCCOCCNC(=O)c2ccc3c(c2)c2cn(C)nc2n3-c2ccc(C(F)(F)F)cc2)C(C)(C)C)cc1 [Compound 4] registered its DC50 at 900

Per the record, Cn1cc2c3cc(C(=O)NCCOCCOCCNC(=O)COc4cccc5c4C(=O)N(C4CCC(=O)NC4=O)C5=O)ccc3n(-c3ccc(C(F)(F)F)cc3)c2n1 (stereo not drawn) [Compound 5] has DC50 of 20000

Per the records, this molecule ( Cn1cc2c3cc(C(=O)NCCOCCOCCOCCOCCNC(=O)[C@]45CCC(C)(C)C[C@H]4[C@H]4C(=O)C=C6[C@@]7(C)C=C(C#N)C(=O)C(C)(C)[C@@H]7CC[C@@]6(C)[C@]4(C)CC5)ccc3n(-c3ccc(C(F)(F)F)cc3)c2n1 [Compound 33] ) has DC50 equal to 600

What the record says about Cn1cc2c3cc(C(=O)NCCOCCOCCOCCOCCNC(=O)COc4ccc5c(c4)CCCN5C(=O)CCl)ccc3n(-c3ccc(C(F)(F)F)cc3)c2n1 [Compound 31] : DC50 is 10000

Reported DC50 of Cn1cc2c3cc(C(=O)NCC#Cc4ccc(N5CCN(CCCC(=O)Nc6ccc7c(c6)CN(C6CCC(=O)NC6=O)C7=O)CC5)nc4)ccc3n(-c3ccc(C(F)(F)F)cc3)c2n1 (stereo not drawn) [Compound 19] : 70

According to the records, this molecule CC(=O)O[C@@H]1C[C@@H](C(=O)N[C@@H](C)c2ccc(-c3scnc3C)cc2)N(C(=O)[C@@H](NC(=O)CCCCCC(=O)NCCOCCOCCNC(=O)c2ccc3c(c2)c2cn(C)nc2n3-c2ccc(C(F)(F)F)cc2)C(C)(C)C)C1 [Compound 25] displays DC50 of 1000
